All figures here come from patent US12624044B2.

target: SMARCA2 (Homo sapiens, UniProt P51531); assay: SMARCA2 Western blot MV4-11 degradation; assay type: cell-based; settings: MV4-11, MV4-11 cells, 24 h, read-out: SMARCA2 WB MV411 degradation 24 h: Average Dmax %
Sequence (P51531 whole entry): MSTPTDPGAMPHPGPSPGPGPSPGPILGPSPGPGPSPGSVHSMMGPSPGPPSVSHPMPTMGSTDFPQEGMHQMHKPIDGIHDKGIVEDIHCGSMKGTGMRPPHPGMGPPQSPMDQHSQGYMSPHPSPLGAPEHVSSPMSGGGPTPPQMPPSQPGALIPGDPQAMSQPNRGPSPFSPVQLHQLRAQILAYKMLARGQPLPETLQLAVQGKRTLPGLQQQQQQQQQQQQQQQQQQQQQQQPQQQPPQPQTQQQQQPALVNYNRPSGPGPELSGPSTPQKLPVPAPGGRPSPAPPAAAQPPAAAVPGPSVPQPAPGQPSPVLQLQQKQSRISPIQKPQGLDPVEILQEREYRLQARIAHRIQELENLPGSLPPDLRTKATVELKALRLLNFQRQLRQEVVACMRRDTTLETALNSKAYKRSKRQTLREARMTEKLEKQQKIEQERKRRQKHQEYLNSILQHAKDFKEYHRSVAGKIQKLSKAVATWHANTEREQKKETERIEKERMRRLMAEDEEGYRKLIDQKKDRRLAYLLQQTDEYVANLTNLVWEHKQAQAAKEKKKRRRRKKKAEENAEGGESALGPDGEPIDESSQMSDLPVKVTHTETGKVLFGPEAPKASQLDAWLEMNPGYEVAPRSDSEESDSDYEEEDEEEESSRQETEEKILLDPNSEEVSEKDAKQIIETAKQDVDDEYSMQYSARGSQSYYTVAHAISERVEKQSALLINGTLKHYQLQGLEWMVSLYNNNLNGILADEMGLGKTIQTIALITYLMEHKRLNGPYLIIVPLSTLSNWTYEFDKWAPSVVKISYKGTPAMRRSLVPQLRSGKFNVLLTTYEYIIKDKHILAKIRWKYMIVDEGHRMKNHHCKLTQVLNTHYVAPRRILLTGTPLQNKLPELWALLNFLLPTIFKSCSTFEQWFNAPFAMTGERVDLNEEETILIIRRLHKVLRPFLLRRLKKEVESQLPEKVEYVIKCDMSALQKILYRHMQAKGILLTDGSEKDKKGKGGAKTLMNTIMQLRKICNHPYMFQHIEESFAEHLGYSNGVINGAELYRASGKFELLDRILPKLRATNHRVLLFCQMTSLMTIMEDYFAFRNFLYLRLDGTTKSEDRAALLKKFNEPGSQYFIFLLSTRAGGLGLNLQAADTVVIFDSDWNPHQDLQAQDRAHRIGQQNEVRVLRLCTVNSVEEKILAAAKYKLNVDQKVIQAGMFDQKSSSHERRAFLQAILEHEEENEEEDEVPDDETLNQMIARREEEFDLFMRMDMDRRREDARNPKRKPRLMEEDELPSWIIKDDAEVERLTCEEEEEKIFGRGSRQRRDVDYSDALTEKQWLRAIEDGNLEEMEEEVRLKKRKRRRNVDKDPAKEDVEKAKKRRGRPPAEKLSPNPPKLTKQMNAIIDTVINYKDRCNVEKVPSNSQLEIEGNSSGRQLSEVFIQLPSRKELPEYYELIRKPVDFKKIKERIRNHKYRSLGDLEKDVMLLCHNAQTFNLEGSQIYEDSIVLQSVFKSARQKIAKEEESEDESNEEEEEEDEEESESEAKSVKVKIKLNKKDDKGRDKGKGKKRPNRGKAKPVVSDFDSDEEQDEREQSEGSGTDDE
Measured attribute: Dmax

Cc1ncsc1-c1ccc(CNC(=O)[C@@H]2C[C@@H](O)CN2C(=O)[C@@H](NC(=O)[C@H]2CC[C@H](CN3CCC(c4cnc(N5C6CCC5CN(c5cc(-c7ccccc7O)nnc5N)C6)nc4)CC3)CC2)C(C)(C)C)cc1 ... > 90%
Cc1ncsc1-c1ccc(CNC(=O)[C@@H]2C[C@@H](O)CN2C(=O)[C@@H](NC(=O)[C@H]2C[C@@H](N3CCC(c4cnc(N5C6CCC5CN(c5cc(-c7ccccc7O)nnc5N)C6)nc4)CC3)C2)C(C)(C)C)cc1 ... 70 to 90%
Cc1ncsc1-c1ccc(CNC(=O)[C@@H]2C[C@@H](O)CN2C(=O)[C@@H](NC(=O)[C@H]2CC=C(c3cnc(N4C5CCC4CN(c4cc(-c6ccccc6O)nnc4N)C5)nc3)CC2)C(C)(C)C)cc1 ... > 90%

Next item in the queue.
*Q* Please supply the value of reported Dmax for the item Cc1ncsc1-c1ccc(CNC(=O)[C@@H]2C[C@@H](O)CN2C(=O)[C@@H](NC(=O)[C@H]2C[C@]3(C[C@H](CN4CCC(c5cnc(N6C7CCC6CN(c6cc(-c8ccccc8O)nnc6N)C7)nc5)CC4)C3)C2)C(C)(C)C)cc1 (stereo partly shown)
*A* > 90%
